target.or.system: Human PD-1 antigen protein (Sino Biological, 10377-H08H) (human, UniProt Q15116 25-167)
Sequence (Q15116 25-167 limits assumed): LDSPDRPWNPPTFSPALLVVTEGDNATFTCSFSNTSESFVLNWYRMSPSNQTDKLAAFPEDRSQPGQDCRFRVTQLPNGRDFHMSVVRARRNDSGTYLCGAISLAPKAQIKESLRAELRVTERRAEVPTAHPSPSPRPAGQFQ
assay.explanation: SPR Biacore 8K, fusion protein captured by anti-human IgG (Fc), human PD-1 as analyte
Form field: koff (one value per entry).
Answer in s⁻¹, number only, no unit symbol.

A-N88D-M08 (Fc fusion, also called A-N88D-M8; not shown: IgG1 hinge (C220S) + Fc Knob chain as in A-N88D; IgG1 hinge (C220S) + Fc Hole chain as in A-N88D) chain (part 1 of 2): EVQLVESGGGLVQPGGSLRLSCAASGLTFSDYSMSWYRQAPGKGRELVAIISGSGVITHYVDSVKGRFTISRDNAKNTLYLQMRSLRAEDTAVYYCRAVSDWQDYWGQGTQVTVSS chain (part 2 of 2): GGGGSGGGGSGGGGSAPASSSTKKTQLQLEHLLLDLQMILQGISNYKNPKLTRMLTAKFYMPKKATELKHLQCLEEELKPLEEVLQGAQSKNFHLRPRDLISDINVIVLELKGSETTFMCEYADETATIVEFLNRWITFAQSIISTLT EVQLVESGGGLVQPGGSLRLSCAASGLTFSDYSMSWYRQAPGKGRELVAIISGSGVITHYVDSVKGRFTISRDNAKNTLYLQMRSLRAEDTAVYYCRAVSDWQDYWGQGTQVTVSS
0.00264
A-N88D-M27 (Fc fusion, not shown: IgG1 hinge (C220S) + Fc Knob chain as in A-N88D; IgG1 hinge (C220S) + Fc Hole chain as in A-N88D) chain (part 1 of 2): EVQLVESGGGLVQPGGSLRLSCAASGLTFSSYSMSWYRQAPGKGRELVAIISGSGGITHYVDSVKGRFTISRDNAKNTLYLQMRSLRAEDTAVYYCRAVSDWQDYWGQGTQVTVSS chain (part 2 of 2): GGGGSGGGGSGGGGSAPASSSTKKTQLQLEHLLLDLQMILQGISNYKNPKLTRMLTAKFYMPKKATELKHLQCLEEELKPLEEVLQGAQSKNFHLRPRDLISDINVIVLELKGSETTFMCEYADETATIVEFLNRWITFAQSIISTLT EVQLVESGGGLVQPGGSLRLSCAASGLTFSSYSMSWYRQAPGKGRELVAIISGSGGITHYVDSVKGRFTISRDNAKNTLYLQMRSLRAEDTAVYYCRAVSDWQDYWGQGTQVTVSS
0.0102

Lookup: Could you tell me which koff is on file for A-N88D-M15 (Fc fusion, not shown: IgG1 hinge (C220S) + Fc Knob chain as in A-N88D; IgG1 hinge (C220S) + Fc Hole chain as in A-N88D) chain (part 1 of 2): EVQLVESGGGLVQPGGSLRLSCAASGLTFSDYSMSWYRQAPGKGRELVAIISGSGGITHYVDSVKGRFTISRDNAKNTLYLQMRSLRAEDTAVYYCRAVSDWEDYWGQGTQVTVSS chain (part 2 of 2): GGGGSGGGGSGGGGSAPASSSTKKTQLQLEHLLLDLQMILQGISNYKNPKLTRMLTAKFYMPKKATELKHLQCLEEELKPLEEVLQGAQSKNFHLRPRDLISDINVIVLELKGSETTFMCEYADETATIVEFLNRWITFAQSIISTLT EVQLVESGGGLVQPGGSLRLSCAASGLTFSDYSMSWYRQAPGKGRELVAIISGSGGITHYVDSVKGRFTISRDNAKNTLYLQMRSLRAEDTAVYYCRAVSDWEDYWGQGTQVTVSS ?
Found: 0.00706
